target: CDK5 (Homo sapiens); assay: biochemical
Sequence (Q00535 whole entry): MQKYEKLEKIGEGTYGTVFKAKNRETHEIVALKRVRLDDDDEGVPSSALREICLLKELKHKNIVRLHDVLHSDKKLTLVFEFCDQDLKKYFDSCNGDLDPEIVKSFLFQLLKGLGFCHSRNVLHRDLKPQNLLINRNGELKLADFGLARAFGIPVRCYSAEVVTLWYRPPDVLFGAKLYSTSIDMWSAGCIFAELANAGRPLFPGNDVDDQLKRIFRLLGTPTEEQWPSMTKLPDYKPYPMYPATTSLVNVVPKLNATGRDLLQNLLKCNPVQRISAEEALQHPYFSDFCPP
Sequence (Q15078 2-307 partner): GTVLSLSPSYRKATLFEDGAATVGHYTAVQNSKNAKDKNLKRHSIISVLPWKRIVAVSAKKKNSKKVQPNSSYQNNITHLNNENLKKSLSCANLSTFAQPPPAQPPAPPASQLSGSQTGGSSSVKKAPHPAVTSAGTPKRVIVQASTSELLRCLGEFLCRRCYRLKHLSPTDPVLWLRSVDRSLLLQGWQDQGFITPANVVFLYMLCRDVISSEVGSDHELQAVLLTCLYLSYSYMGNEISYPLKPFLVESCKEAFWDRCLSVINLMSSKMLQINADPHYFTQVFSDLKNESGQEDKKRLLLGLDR
pIC50: −log10 of the molar value.
Parameter: pIC50. Scope: all listed entries.

Compound structure	pIC50
Nc1ccc2[nH]c(SCc3nc4ccccc4c(=O)n3-c3cccc(Cl)c3)nc2c1	5.12
Nc1ccc2[nH]c(SCc3nc4ccccc4c(=O)n3-c3ccccc3)nc2c1	5.08

The reported numbers originate from paper PMC7466635.
